System: NCI-H1563
Assay: relative viability (nuclei count vs DMSO), 5 days (fraction); higher = more cells survive
Conditions: first compound 0.05 µM
ASSAY METRIC: relative viability
One number for each entry.

Example cases with answers are listed next.
COMPOUND: CC1(C)CCC(c2ccc(Cl)cc2)=C(CN2CCN(c3ccc(C(=O)NS(=O)(=O)c4ccc(N[C@H](CCN5CCOCC5)CSc5ccccc5)c(S(=O)(=O)C(F)(F)F)c4)cc3)CC2)C1 [Navitoclax] + COc1cccc2cc(-c3nc([C@H]4CC[C@H](C(=O)O)CC4)n4ncnc(N)c34)[nH]c12 [OSI-027] (partner 0.5 µM)
relative viability: 0.756
//
COMPOUND: CC1(C)CCC(c2ccc(Cl)cc2)=C(CN2CCN(c3ccc(C(=O)NS(=O)(=O)c4ccc(N[C@H](CCN5CCOCC5)CSc5ccccc5)c(S(=O)(=O)C(F)(F)F)c4)cc3)CC2)C1 [Navitoclax] + COc1cc2c(Oc3ccc(NC(=O)C4(C(=O)Nc5ccc(F)cc5)CC4)cc3F)ccnc2cc1OCCCN1CCOCC1 [Foretinib] (partner 0.25 µM)
relative viability: 0.856
//
COMPOUND: CC1(C)CCC(c2ccc(Cl)cc2)=C(CN2CCN(c3ccc(C(=O)NS(=O)(=O)c4ccc(N[C@H](CCN5CCOCC5)CSc5ccccc5)c(S(=O)(=O)C(F)(F)F)c4)cc3)CC2)C1 [Navitoclax] + CS(=O)(=O)CCNCc1ccc(-c2ccc3ncnc(Nc4ccc(OCc5cccc(F)c5)c(Cl)c4)c3c2)o1 [Lapatinib] (partner 2 µM)
relative viability: 0.877

Value lookup for relative viability; key = CC1(C)CCC(c2ccc(Cl)cc2)=C(CN2CCN(c3ccc(C(=O)NS(=O)(=O)c4ccc(N[C@H](CCN5CCOCC5)CSc5ccccc5)c(S(=O)(=O)C(F)(F)F)c4)cc3)CC2)C1 [Navitoclax] + C[C@@H](Oc1cc(-c2cnn(C3CCNCC3)c2)cnc1N)c1c(Cl)ccc(F)c1Cl [Crizotinib] (partner 1 µM)
0.897

###

Tested on: SK-LU-1
Assay: relative viability (nuclei count vs DMSO), 5 days (fraction); higher = more cells survive
Details: first compound 0.8 µM
ASSAY METRIC: relative viability
Numbers only.

Study these solved cases before continuing.
MOLECULE: Oc1nc(-c2ccc(C(F)(F)F)cc2)nc2c1CSCC2 [XAV939] + O=C(c1cc(Cc2n[nH]c(=O)c3ccccc23)ccc1F)N1CCN(C(=O)C2CC2)CC1 [Olaparib] (partner 8 µM)
relative viability: 0.437

MOLECULE: Oc1nc(-c2ccc(C(F)(F)F)cc2)nc2c1CSCC2 [XAV939] + CS(=O)(=O)CCNCc1ccc(-c2ccc3ncnc(Nc4ccc(OCc5cccc(F)c5)c(Cl)c4)c3c2)o1 [Lapatinib] (partner 2 µM)
relative viability: 0.863

MOLECULE: Oc1nc(-c2ccc(C(F)(F)F)cc2)nc2c1CSCC2 [XAV939] + C[C@@H](Oc1cc(-c2cnn(C3CCNCC3)c2)cnc1N)c1c(Cl)ccc(F)c1Cl [Crizotinib] (partner 1 µM)
relative viability: 0.936

Provide relative viability for all items below, preserving their order.
1. C=C1C(=O)O[C@@H](CCCCCCCC)[C@@H]1C(=O)O [C-75] + O=C(c1cc(Cc2n[nH]c(=O)c3ccccc23)ccc1F)N1CCN(C(=O)C2CC2)CC1 [Olaparib] (partner 8 µM)
2. Oc1nc(-c2ccc(C(F)(F)F)cc2)nc2c1CSCC2 [XAV939] + CCNC(=O)c1noc(-c2cc(C(C)C)c(O)cc2O)c1-c1ccc(CN2CCOCC2)cc1 [Luminespib] (partner 0.01 µM)
3. Oc1nc(-c2ccc(C(F)(F)F)cc2)nc2c1CSCC2 [XAV939] + Cc1nc(NC(=O)N2CCC[C@H]2C(N)=O)sc1-c1ccnc(C(C)(C)C(F)(F)F)c1 [Alpelisib] (partner 2 µM)
4. Oc1nc(-c2ccc(C(F)(F)F)cc2)nc2c1CSCC2 [XAV939] + CS(=O)(=O)N1CCN(Cc2cc3nc(-c4cccc5[nH]ncc45)nc(N4CCOCC4)c3s2)CC1 [Pictilisib] (partner 1 µM)
5. C=C1C(=O)O[C@@H](CCCCCCCC)[C@@H]1C(=O)O [C-75] + Cc1nc(Nc2ncc(C(=O)Nc3c(C)cccc3Cl)s2)cc(N2CCN(CCO)CC2)n1 [Dasatinib] (partner 0.075 µM)
6. C=C1C(=O)O[C@@H](CCCCCCCC)[C@@H]1C(=O)O [C-75] + CC(C)C[C@H](NC(=O)[C@H](Cc1ccccc1)NC(=O)c1cnccn1)B(O)O [Bortezomib] (partner 0.002 µM)

[0.454, 0.207, 1, 0.646, 0.166, 0.836]

What value of relative viability has been recorded for this entry: Oc1nc(-c2ccc(C(F)(F)F)cc2)nc2c1CSCC2 [XAV939] + COc1cccc2cc(-c3nc([C@H]4CC[C@H](C(=O)O)CC4)n4ncnc(N)c34)[nH]c12 [OSI-027] (partner 0.5 µM)
0.394

###

Kindly state relative viability for each of the entries shown.
Tested on: NCI-H1792
Experiment: relative viability (nuclei count vs DMSO), 5 days (fraction); higher = more cells survive
Settings: first compound 0.1581 µM
One number for each entry.

Example entries begin here.
COMPOUND: CC1(C)CCC(c2ccc(Cl)cc2)=C(CN2CCN(c3ccc(C(=O)NS(=O)(=O)c4ccc(N[C@H](CCN5CCOCC5)CSc5ccccc5)c(S(=O)(=O)C(F)(F)F)c4)cc3)CC2)C1 [Navitoclax] + O=C(c1cc(Cc2n[nH]c(=O)c3ccccc23)ccc1F)N1CCN(C(=O)C2CC2)CC1 [Olaparib] (partner 8 µM)
relative viability: 0.386
--
COMPOUND: CC1(C)CCC(c2ccc(Cl)cc2)=C(CN2CCN(c3ccc(C(=O)NS(=O)(=O)c4ccc(N[C@H](CCN5CCOCC5)CSc5ccccc5)c(S(=O)(=O)C(F)(F)F)c4)cc3)CC2)C1 [Navitoclax] + Cc1nc(Nc2ncc(C(=O)Nc3c(C)cccc3Cl)s2)cc(N2CCN(CCO)CC2)n1 [Dasatinib] (partner 0.075 µM)
relative viability: 0.782

// switching to the query compound
Reported relative viability, compound CC1(C)CCC(c2ccc(Cl)cc2)=C(CN2CCN(c3ccc(C(=O)NS(=O)(=O)c4ccc(N[C@H](CCN5CCOCC5)CSc5ccccc5)c(S(=O)(=O)C(F)(F)F)c4)cc3)CC2)C1 [Navitoclax] + NC(=O)Nc1cc(-c2cccc(F)c2)sc1C(=O)N[C@H]1CCCNC1 [AZD7762] (partner 0.2 µM) : ____
0.559

###

Tested on: PC-3 [JPC-3]
Test: relative viability (nuclei count vs DMSO), 5 days (fraction); higher = more cells survive
Conditions: first compound 0.1581 µM
ASSAY METRIC: relative viability
Numbers only.

COMPOUND: CC1(C)CCC(c2ccc(Cl)cc2)=C(CN2CCN(c3ccc(C(=O)NS(=O)(=O)c4ccc(N[C@H](CCN5CCOCC5)CSc5ccccc5)c(S(=O)(=O)C(F)(F)F)c4)cc3)CC2)C1 [Navitoclax] + O=C(c1cc(Cc2n[nH]c(=O)c3ccccc23)ccc1F)N1CCN(C(=O)C2CC2)CC1 [Olaparib] (partner 8 µM)
MEASURED: 1.07
//
COMPOUND: CC1(C)CCC(c2ccc(Cl)cc2)=C(CN2CCN(c3ccc(C(=O)NS(=O)(=O)c4ccc(N[C@H](CCN5CCOCC5)CSc5ccccc5)c(S(=O)(=O)C(F)(F)F)c4)cc3)CC2)C1 [Navitoclax] + CCNC(=O)c1noc(-c2cc(C(C)C)c(O)cc2O)c1-c1ccc(CN2CCOCC2)cc1 [Luminespib] (partner 0.01 µM)
MEASURED: 0.684
//
COMPOUND: CC1(C)CCC(c2ccc(Cl)cc2)=C(CN2CCN(c3ccc(C(=O)NS(=O)(=O)c4ccc(N[C@H](CCN5CCOCC5)CSc5ccccc5)c(S(=O)(=O)C(F)(F)F)c4)cc3)CC2)C1 [Navitoclax] + N=C(N)NC(=N)NCCc1ccccc1 [Phenformin] (partner 250 µM)
MEASURED: 0.453

State the recorded relative viability for this entry: CC1(C)CCC(c2ccc(Cl)cc2)=C(CN2CCN(c3ccc(C(=O)NS(=O)(=O)c4ccc(N[C@H](CCN5CCOCC5)CSc5ccccc5)c(S(=O)(=O)C(F)(F)F)c4)cc3)CC2)C1 [Navitoclax] + Cc1nc(NC(=O)N2CCC[C@H]2C(N)=O)sc1-c1ccnc(C(C)(C)C(F)(F)F)c1 [Alpelisib] (partner 2 µM)
1.03

###

Tested on: NCI-H2405
Assay: relative viability (nuclei count vs DMSO), 5 days (fraction); higher = more cells survive
Settings: first compound 0.005 µM
ASSAY METRIC: relative viability
Numbers only.

COMPOUND: CC1(C)CCC(c2ccc(Cl)cc2)=C(CN2CCN(c3ccc(C(=O)NS(=O)(=O)c4ccc(N[C@H](CCN5CCOCC5)CSc5ccccc5)c(S(=O)(=O)C(F)(F)F)c4)cc3)CC2)C1 [Navitoclax] + C[C@]1(O)C[C@@H](c2nc(-c3ccc4ccc(-c5ccccc5)nc4c3)c3c(N)nccn32)C1 [Linsitinib] (partner 1 µM)
MEASURED: 0.899

Tell me the measured relative viability of CC1(C)CCC(c2ccc(Cl)cc2)=C(CN2CCN(c3ccc(C(=O)NS(=O)(=O)c4ccc(N[C@H](CCN5CCOCC5)CSc5ccccc5)c(S(=O)(=O)C(F)(F)F)c4)cc3)CC2)C1 [Navitoclax] + CC(=O)Nc1cccc(-n2c(=O)n(C3CC3)c(=O)c3c(Nc4ccc(I)cc4F)n(C)c(=O)c(C)c32)c1 [Trametinib] (partner 0.02 µM) , please.
0.535

Data provenance is the supplement of paper PMC10307832.
